Provenance of the data: ChEMBL document CHEMBL1142320

method: Clearance in rat
Type: ADME, organism-based
experimental conditions: in vivo
endpoint: clearance (L/h/kg)
All answers are understood in L/h/kg, so give the number only.

Example entries begin here.
>  <compound string>
COc1cccc(CNC(=O)c2cc3c(=O)n(Cc4ccc(C(=O)O)cc4)cnc3cn2)c1

>  <endpoint>
clearance

>  <unit abbreviation>
L/h/kg

>  <numeric value>
0.672

$$$$
>  <compound string>
COc1ccc(CNC(=O)c2cc3c(=O)n(Cc4ccc(C(=O)O)cc4)cnc3cn2)cc1

>  <endpoint>
clearance

>  <unit abbreviation>
L/h/kg

>  <numeric value>
0.456

$$$$
>  <compound string>
COc1ccc(CNC(=O)c2ccc3ncn(Cc4ccc(C(=O)O)cc4)c(=O)c3c2)cc1

>  <endpoint>
clearance

>  <unit abbreviation>
L/h/kg

>  <numeric value>
1.2

$$$$
>  <compound string>
COc1ccc(CC#Cc2ccc3ncn(Cc4ccc(C(=O)O)cc4)c(=O)c3c2)cc1

>  <endpoint>
clearance

>  <unit abbreviation>
L/h/kg

>  <numeric value>
0.318

$$$$

Here is another compound to look at.
// query Consider the compound O=C(O)c1ccc(Cn2cnc3cnc(C(=O)NCc4cccc(C(F)(F)F)c4)cc3c2=O)cc1 and give its measured clearance.
// result 1.24
